Subject of test: acetylcholinesterase (AChE) (Homo sapiens)
Construct: purchased Sigma Chemical Co. (Poznań, Poland)
Sequence (P22303 32-614, species assumed): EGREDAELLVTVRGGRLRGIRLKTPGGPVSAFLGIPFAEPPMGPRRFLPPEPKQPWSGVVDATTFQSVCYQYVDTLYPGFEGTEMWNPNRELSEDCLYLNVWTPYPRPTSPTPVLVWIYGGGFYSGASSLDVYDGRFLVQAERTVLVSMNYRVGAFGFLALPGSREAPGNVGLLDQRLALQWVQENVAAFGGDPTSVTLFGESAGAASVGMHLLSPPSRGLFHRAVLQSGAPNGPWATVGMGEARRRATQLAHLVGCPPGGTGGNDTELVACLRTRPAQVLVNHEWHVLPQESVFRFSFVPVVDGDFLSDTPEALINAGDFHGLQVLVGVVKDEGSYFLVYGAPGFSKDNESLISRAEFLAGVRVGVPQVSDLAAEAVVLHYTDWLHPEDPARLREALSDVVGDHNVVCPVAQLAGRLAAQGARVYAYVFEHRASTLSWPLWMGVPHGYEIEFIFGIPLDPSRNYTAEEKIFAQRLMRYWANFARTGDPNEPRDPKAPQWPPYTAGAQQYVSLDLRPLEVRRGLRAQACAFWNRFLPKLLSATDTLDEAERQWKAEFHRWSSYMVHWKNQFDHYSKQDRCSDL
Assay remarks: Acetylcholinesterase inhibitory activity
Assay type: biochemical
Would you mind telling me the reported IC50 of each entry?
Write the value in nM as a bare number.

Requested field: IC50. Item: O=c1cc(-c2ccc(O)cc2)oc2cc(O)c([C@@H]3O[C@H](CO)[C@@H](O)[C@H](O)[C@H]3O)c(O)c12 [Isovitexin (iVT), 4′,5,7-trihydroxyflavone-6-glucoside]
1080

Requested field: IC50. Item: "O=c1cc(-c2ccc(O)c(O)c2)oc2cc(O)c([C@@H]3O[C@H](CO)[C@@H](O)[C@H](O)[C@H]3O)c(O)c12"
581

Requested field: IC50. Item: O=c1cc(-c2ccc(O)cc2)oc2c([C@@H]3O[C@H](CO)[C@@H](O)[C@H](O)[C@H]3O)c(O)cc(O)c12 [Vitexin (VT), 4′,5,7-trihydroxyflavone-8-glucoside]
1280

Requested field: IC50. Item: O=c1c(O)c(-c2ccc(O)c(O)c2)oc2cc(O)cc(O)c12 [Quercetin (Q), 3,3′,4′,5,7-pentahydroxyflavone, reference compound]
1370

====

Subject of test: angiotensin-converting enzymes (ACE) from porcine kidneys (Sus scrofa, UniProt F1RRW5)
Construct: angiotensin-converting enzymes (ACE) from porcine kidneys (EC 3.4.15.1); purchased Sigma (Sigma Chemical Company, Saint Louis, MO, USA); host or cells: porcine kidney
Sequence (F1RRW5 34-1309): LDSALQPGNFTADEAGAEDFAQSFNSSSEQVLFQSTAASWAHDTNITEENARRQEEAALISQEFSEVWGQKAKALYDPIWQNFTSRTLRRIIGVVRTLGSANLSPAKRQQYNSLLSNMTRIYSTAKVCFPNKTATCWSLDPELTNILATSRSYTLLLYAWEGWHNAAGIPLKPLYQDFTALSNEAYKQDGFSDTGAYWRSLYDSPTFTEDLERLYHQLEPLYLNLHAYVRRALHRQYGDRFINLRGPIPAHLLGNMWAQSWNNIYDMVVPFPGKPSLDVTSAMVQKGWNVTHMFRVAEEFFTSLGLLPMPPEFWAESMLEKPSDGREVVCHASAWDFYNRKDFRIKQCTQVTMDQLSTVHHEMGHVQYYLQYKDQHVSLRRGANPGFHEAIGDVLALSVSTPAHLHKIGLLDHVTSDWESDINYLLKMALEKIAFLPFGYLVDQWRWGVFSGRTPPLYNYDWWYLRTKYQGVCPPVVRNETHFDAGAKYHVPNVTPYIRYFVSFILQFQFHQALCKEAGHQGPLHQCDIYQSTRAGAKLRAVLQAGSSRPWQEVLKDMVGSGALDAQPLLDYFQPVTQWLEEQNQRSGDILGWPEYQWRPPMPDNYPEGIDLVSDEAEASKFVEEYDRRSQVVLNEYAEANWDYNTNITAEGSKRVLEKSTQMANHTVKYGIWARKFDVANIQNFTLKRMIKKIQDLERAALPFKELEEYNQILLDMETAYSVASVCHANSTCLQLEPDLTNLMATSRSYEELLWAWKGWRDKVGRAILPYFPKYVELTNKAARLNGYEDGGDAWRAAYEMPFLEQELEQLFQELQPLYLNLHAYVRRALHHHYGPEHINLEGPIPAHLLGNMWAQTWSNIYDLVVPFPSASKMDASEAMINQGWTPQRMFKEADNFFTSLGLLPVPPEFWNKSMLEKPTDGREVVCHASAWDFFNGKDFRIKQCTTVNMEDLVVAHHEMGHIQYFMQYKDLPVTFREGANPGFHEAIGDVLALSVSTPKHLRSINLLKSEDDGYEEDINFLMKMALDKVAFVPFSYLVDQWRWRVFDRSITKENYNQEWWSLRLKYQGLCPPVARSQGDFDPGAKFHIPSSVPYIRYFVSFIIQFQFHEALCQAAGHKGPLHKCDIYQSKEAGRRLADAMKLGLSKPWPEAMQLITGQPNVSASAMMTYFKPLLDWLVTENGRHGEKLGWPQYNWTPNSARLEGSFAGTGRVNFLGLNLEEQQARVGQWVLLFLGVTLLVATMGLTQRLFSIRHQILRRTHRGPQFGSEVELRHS
Assay remarks: Angiotensin-I-converting enzyme inhibitory activity (fluorometric)
Assay type: biochemical
Measurement parameters: ACE from porcine kidneys; linear regression; read-out: IC50 for ACE inhibition
Experimental readout: IC50
Entry format: amount then unit.

Requested field: IC50. Item: O=c1cc(-c2ccc(O)cc2)oc2cc(O)c([C@@H]3O[C@H](CO)[C@@H](O)[C@H](O)[C@H]3O)c(O)c12 [Isovitexin (iVT), 4′,5,7-trihydroxyflavone-6-glucoside]
161 µM

Requested field: IC50. Item: O=c1cc(-c2ccc(O)cc2)oc2c([C@@H]3O[C@H](CO)[C@@H](O)[C@H](O)[C@H]3O)c(O)cc(O)c12 [Vitexin (VT), 4′,5,7-trihydroxyflavone-8-glucoside]
135 µM

Requested field: IC50. Item: "O=c1cc(-c2ccc(O)c(O)c2)oc2cc(O)c([C@@H]3O[C@H](CO)[C@@H](O)[C@H](O)[C@H]3O)c(O)c12"
114 µM
